Measured IC50, listed per entry.
# System name: HIV-1-Protease (Human immunodeficiency virus type 1 group M subtype B)
# Construct: Gereinigte HIV-Protease wurde mit synthetischem Peptid
# Experiment: HIV-specific protease enzyme assay (purified HIV protease, synthetic peptide substrate, RP-HPLC analysis of cleavage products)
# Type: biochemical
# Recorded conditions: HIV-1-Protease-Inhibition IC50, purified HIV protease; synthetic peptide imitating a Gag precursor cleavage site; 50% inhibition of protease activity
Return type: number; implicit unit nM.

Look over these answered cases.
{"columns": ["Compound", "System name", "Metric name", "Measured value"],
 "data": [
  ["NC(=O)C[C@H](NC(=O)c1ccc2ccccc2n1)C(=O)N[C@@H](Cc1ccccc1)[C@H](O)CN1[C@H](C(F)(F)F)C[C@@H]2CCC[C@@H]21 [Beispiel 3]", "HIV-1-Protease (Human immunodeficiency virus type 1 group M subtype B)", "IC50", 0.24],
  ["NC(=O)C[C@H](NC(=O)c1ccc2ccccc2n1)C(=O)N[C@@H](Cc1ccccc1)[C@H](O)CN1[C@H](C(F)(F)F)C[C@@H]2CCC[C@@H]21 [Beispiel 4]", "HIV-1-Protease (Human immunodeficiency virus type 1 group M subtype B)", "IC50", 0.6]
]}

Let us move to another entry and its IC50.
Ask: Which IC50 value is on record for NC(=O)C[C@H](NC(=O)c1cnc2ccccc2n1)C(=O)N[C@@H](Cc1ccccc1)[C@H](O)CN1[C@H](C(F)(F)F)C[C@@H]2CCC[C@@H]21 [Beispiel 1] ?
Result: 0.018

====

# System name: HIV-1-Protease (Human immunodeficiency virus type 1 group M subtype B, UniProt P04585)
# Construct: Gereinigte HIV-Protease wurde mit synthetischem Peptid
# Experiment: HIV-specific protease enzyme assay (purified HIV protease, synthetic peptide substrate, RP-HPLC analysis of cleavage products)
# Assay type: biochemical
# Recorded conditions: synthetic peptide imitating a Gag precursor cleavage site
Measured HIV-1-Protease-Inhibition IC95, listed per entry.

Look over these answered cases.
{"columns": ["Molecule", "HIV-1-Protease-Inhibition IC95"],
 "data": [
  ["NC(=O)C[C@H](NC(=O)c1cnc2ccccc2n1)C(=O)N[C@@H](Cc1ccccc1)[C@H](O)CN1[C@H](C(F)(F)F)C[C@@H]2CCC[C@@H]21 [Beispiel 2]", "3,6 x 10^-11 Mol/l"],
  ["NC(=O)C[C@H](NC(=O)COc1ccccc1-c1ccccc1)C(=O)N[C@@H](Cc1ccccc1)[C@H](O)CN1[C@H](C(F)(F)F)C[C@@H]2CCC[C@@H]21 [Beispiel 15]", "2,9 x 10^-8 Mol/l"]
]}

Let us move to another entry and its HIV-1-Protease-Inhibition IC95.
Ask: Which HIV-1-Protease-Inhibition IC95 value is on record for Cc1c(O)cccc1C(=O)N[C@@H](CC(N)=O)C(=O)N[C@@H](Cc1ccccc1)[C@H](O)CN1[C@H](C(F)(F)F)C[C@@H]2CCC[C@@H]21 [Beispiel 16] ?
Result: 2,7 x 10^-6 Mol/l

====

# System name: HIV-1-Protease (Human immunodeficiency virus type 1 group M subtype B)
# Construct: Gereinigte HIV-Protease wurde mit synthetischem Peptid
# Experiment: HIV-specific protease enzyme assay (purified HIV protease, synthetic peptide substrate, RP-HPLC analysis of cleavage products)
# Type: biochemical
# Recorded conditions: read-out: HIV-1-Protease-Inhibition IC50; purified HIV protease; synthetic peptide imitating a Gag precursor cleavage site; 50% inhibition of protease activity
# Description: Es wurde überraschend gefunden, daß die Verbindungen der allgemeinen Formel (I) eine außerordentlich starke Wirkung gegen Retroviren besitzen. Dies wird mit einem HIV-spezifischen Protease-Enzymtest belegt. Die Ergebnisse der unten aufgeführten Beispiele wurden nach dem in den folgenden Literaturangaben [vgl. […]
Metric name: pIC50
Note on pIC50: it is the negative log10 of concentration, concentration in mol/L.

Ask: Which pIC50 value is on record for NC(=O)C[C@H](NC(=O)c1cnc2ccccc2n1)C(=O)N[C@@H](Cc1ccccc1)[C@H](O)CN1[C@H](C(F)(F)F)C[C@@H]2CCC[C@@H]21 ?
Result: 10.77
